B1: TPR 5TU (parent)
chain: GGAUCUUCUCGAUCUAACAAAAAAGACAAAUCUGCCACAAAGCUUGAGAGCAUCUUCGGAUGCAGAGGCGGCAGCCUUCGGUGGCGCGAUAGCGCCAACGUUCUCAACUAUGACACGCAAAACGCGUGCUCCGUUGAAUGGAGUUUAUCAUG

Variants of: B1
protocol: polymerase ribozyme fitness, log enrichment relative to wild type (log ratio); higher = more active; in vitro selection for triplet polymerase activity
Variants at the floor of the assay were thinned out.
Mark n for polymerase ribozyme fitness (log ratio) values under -2, and y for everything at or above.

The following variants have reported results that may help.
mutation="C5A C69A G84A U104G C125U G126A A142C" class_assignment=n
mutation="A20U C38G C57U G86A" class_assignment=n
mutation="U53C G86A C95U" class_assignment=y

Decide: is the reported value of polymerase ribozyme fitness (log ratio) for C14G A40C C57G equal to or greater than -2? n

Threshold query (polymerase ribozyme fitness (log ratio) >= -2) on A16C G92C y

Would you say A26C G100U shows polymerase ribozyme fitness (log ratio) at minimum -2? n

Has C5G U15G A52G a recorded polymerase ribozyme fitness (log ratio) greater than or equal to -2? y

Is reported polymerase ribozyme fitness (log ratio) greater than or equal to -2 here: U13G A26G U31G C51G G88C n

Check the entry A60G U134G G143U : does polymerase ribozyme fitness (log ratio) equal or exceed -2? n

Tell me whether polymerase ribozyme fitness (log ratio) is at least -2 here: C51U C54U C76A G86A n

I'd appreciate it if you could say whether G25U U55G A122U has polymerase ribozyme fitness (log ratio) at least equal to -2. n

Assess whether reported polymerase ribozyme fitness (log ratio) for U13G C18G U45A G59U U104G U134C G140U U144A sits at -2 or higher. n

Has A47C A122U a recorded polymerase ribozyme fitness (log ratio) greater than or equal to -2? y

Has G25U U61G a recorded polymerase ribozyme fitness (log ratio) greater than or equal to -2? n

Quick check, polymerase ribozyme fitness (log ratio) >= -2? G59C G68C G70U G140U n

Tell me whether polymerase ribozyme fitness (log ratio) is at least -2 here: C57G C95U y

Does the variant A12U A16G A30U C79G C95A U144A have recorded polymerase ribozyme fitness (log ratio) that is -2 or more? n

Does polymerase ribozyme fitness (log ratio) meet or surpass -2 for G50C C57U G59C C99G ? n

Attribution: the RNAGym collection of RNA variant scans (doi:10.1073/pnas.2313332121)
